# Protocol Summary: Solubility assay under CellSensor assay conditions (HPLC-UV)
# Type: physicochemical
# Condition Label: nominal concentration 50 µM; 3 hours; assay buffer, 0.5% DMSO
Assay Endpoint: Concentration @ t = 3

# count of solved cases: 3
Supply Concentration @ t = 3 value. Item: CN(C)CCC=C1c2ccccc2CCc2ccccc21 [Amitriptyline]
27 µM

Supply Concentration @ t = 3 value. Item: O=c1cc(-c2ccccc2)oc2c(O)c(O)ccc12 [7,8-dihydroxyflavone]
10 µM

Supply Concentration @ t = 3 value. Item: CC(=O)NCCc1c[nH]c2ccc(O)cc12 [N-acetyl serotonin]
44 µM

Further cases:
Supply Concentration @ t = 3 value. Item: COC(=O)[C@H]1[C@H]2C[C@@H]3c4[nH]c5cc(OC)ccc5c4CCN3C[C@H]2C[C@@H](OC(=O)c2cc(OC)c(OC)c(OC)c2)[C@@H]1OC [Reserpine]
4.5 µM

Supply Concentration @ t = 3 value. Item: O=C(NCCO)c1cc(C(=O)NCCO)cc(C(=O)NCCO)c1 [LM22A-4]
58 µM
